# Tested on: Lolium perenne (LOLPE)
# experimentalDetails: Glasshouse assay for herbicidal activity (pre- and post-emergence), percentage phytotoxicity
# Type: in vivo
# testConditions: Lolium perenne, pre-emergence, 480 h, PRE-emergence, rate 250 g/ha, visual score 20 DAA (100%=total damage, 0%=no damage); read-out: Pre-emergence herbicidal activity (percentage phytotoxicity) LOLPE PRE
Property: pest or weed control at 250 g/ha; scope: individual molecules
Please reply with the bare figure in % and do not write the unit itself.

// solved cases for pest or weed control at 250 g/ha follow
Cc1cc(-c2ncc(C#N)cn2)cc(C)c1C1C(=O)CC(CC(=O)N2CCOCC2)C1=O (stereo not drawn) [Compound B288]
90
Cc1cc(-n2cc(Cl)cn2)cc(C)c1C1C(=O)CC(CC(=O)NCC2CC2)C1=O (stereo not drawn) [Compound B227]
80
C/C=C/c1cc(C)c(C2C(=O)CC(CC(=O)N(C)C(C)(C)C)C2=O)c(C)c1 (stereo not drawn) [Compound B249]
70
Cc1cc(-c2ncc(F)cn2)cc(C)c1C1C(=O)CC(CC(=O)N2CCOCC2)C1=O (stereo not drawn) [Compound B276]
90
C#CC(C)(C)NC(=O)CC1CC(=O)C(c2c(C)cc(-c3ccc(Br)cn3)cc2C)C1=O (stereo not drawn) [Compound B297]
90
Cc1cc(OCC(F)(F)F)cc(C)c1C1C(=O)CC(CC(=O)NCC2CC2)C1=O (stereo not drawn) [Compound B210]
100

IN: Write down the reported pest or weed control at 250 g/ha (system: Lolium perenne (LOLPE)) of C=CC(C)NC(=O)CC1CC(=O)C(c2c(C)cc(C)cc2C)C1=O (stereo not drawn) [Compound B179]
OUT: 100

IN: Enter recorded pest or weed control at 250 g/ha with Lolium perenne (LOLPE) for Cc1cc(-c2ncc(F)cn2)cc(C)c1C1C(=O)CC(CC(=O)N(C)Cc2cccc(F)c2)C1=O (stereo not drawn) [Compound B273] here.
OUT: 100

IN: Check Lolium perenne (LOLPE) data and give pest or weed control at 250 g/ha for C=CCNC(=O)CC1CC(=O)C(c2c(C)cc(OCC(F)(F)F)cc2C)C1=O (stereo not drawn) [Compound B209] .
OUT: 90

====

# Test system: Avena fatua (AVEFA)
# experimentalDetails: Glasshouse assay for herbicidal activity (pre- and post-emergence), percentage phytotoxicity
# Type: in vivo
# testConditions: Avena fatua, pre-emergence, 480 h, Rate 250 g/ha; pre-emergence; assessed visually 20 DAA; 100%=total damage, 0%=no damage; read-out: Pre-emergence herbicidal activity (percentage phytotoxicity) AVEFA PRE
readoutType: pest or weed control at 250 g/ha (%)
Report the figure in % without appending any unit label.

IN: Look up and report measured pest or weed control at 250 g/ha for this entry: Cc1cc(-c2ncc(F)cc2Cl)cc(C)c1C1C(=O)CC(CC(=O)NCc2cccs2)C1=O (centres unmarked) [Compound A150]
OUT: 50

IN: Answer with the recorded pest or weed control at 250 g/ha of C=CCCNC(=O)CC1CC(=O)C(c2c(C)cc(C)cc2C)C1=O (centres unmarked) [Compound A94] only.
OUT: 20

IN: Answer with the recorded pest or weed control at 250 g/ha of CCCCNC(=O)CC1CC(=O)C(c2c(C)cc(-c3ncc(Cl)cc3F)cc2C)C1=O (centres unmarked) [Compound A44] only.
OUT: 100

IN: Please look at this compound and report its pest or weed control at 250 g/ha: Cc1cccc(CNC(=O)CC2CC(=O)C(c3c(C)cc(-c4ncc(Cl)cc4F)cc3C)C2=O)c1 (centres unmarked) [Compound A119]
OUT: 60

IN: Return pest or weed control at 250 g/ha (reported value) for this compound: Cc1cc(C)c(C2C(=O)CC(CC(=O)NCc3cc(C)nn3C)C2=O)c(C)c1 (centres unmarked) [Compound A84]
OUT: 0
